Test system: 242566-281-R-J2-PDC complex spheroid viability;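 also: spheroids exposed to compound for 7 days before readout; 100% = DMSO vehicle control wells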
Test: Anticancer human tumor 242566-281-R-J2-PDC patient-derived pancreatic carcinoma cell line growth inhibition [RAS]
Condition parameters: second compound 0.00949 µM; first compound 10 µM; hits give low values
Field: viability, T/C. Provide a value for each of the compounds that follow.
Give bare numbers, in %.

// below: answered compounds
{"Compound": "CC(=O)OC12COC1CC(O)C1(C)C(=O)C(O)C3=C(C)C(OC(=O)C(O)C(NC(=O)OC(C)(C)C)c4ccccc4)CC(O)(C(OC(=O)c4ccccc4)C21)C3(C)C (centres undefined) + CCn1c(-c2cc(N3CCN(C)CC3)cnc2C(C)OC)c2c3cc(ccc31)-c1csc(n1)CC(NC(=O)C1CC1C)C(=O)N1CCCC(N1)C(=O)OCC(C)(C)C2", "viability, T/C, %": 16.8}
{"Compound": "CC(Nc1ccc2c(c1)OCCn1cc(N3C(=O)OCC3C(F)F)nc1-2)C(N)=O (centres undefined) + CCn1c(-c2cccnc2C(C)OC)c2c3cc(ccc31)N1CCOC(CC(NC(=O)C(C(C)C)N(C)C(=O)C3(F)CCN(C(=O)C#CC(C)(C)N(C)C)CC3)C(=O)N3CCCC(N3)C(=O)OCC(C)(C)C2)C1", "viability, T/C, %": 20.8}
{"Compound": "Cc1nc(N2CCC3(CC2)COC(C)C3N)c(CO)nc1Sc1ccnc(N)c1Cl (centres undefined) + CCn1c(-c2cccnc2C(C)OC)c2c3cc(ccc31)N1CCOC(CC(NC(=O)C(C(C)C)N(C)C(=O)C3(F)CCN(C(=O)C#CC(C)(C)N(C)C)CC3)C(=O)N3CCCC(N3)C(=O)OCC(C)(C)C2)C1", "viability, T/C, %": 68.6}

The record that follows has no viability, T/C shown yet.
Please look at this compound and report its viability, T/C: CCC(CC)c1cc(NC2CCC(N)C2)n2nccc2n1 (centres undefined) + CCn1c(-c2cc(N3CCN(C)CC3)cnc2C(C)OC)c2c3cc(ccc31)-c1csc(n1)CC(NC(=O)C1CC1C)C(=O)N1CCCC(N1)C(=O)OCC(C)(C)C2
1.43
